B1: HDV Ribozyme (parent)
chain: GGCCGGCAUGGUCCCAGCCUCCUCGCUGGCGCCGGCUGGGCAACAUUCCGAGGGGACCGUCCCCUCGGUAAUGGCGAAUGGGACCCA

# Variants of: B1
# experiment: self-cleavage, relative activity (ratio to wild type); higher = more cleavage; co-transcriptional
quantityMeasured: self-cleavage

{"columns": ["mutantName", "reported"],
 "data": [
  ["G1C C44G", 0.0692],
  ["G39C A70U", 0.0308],
  ["C22G G67U", 0.0519],
  ["G54C C84U", 0.665],
  ["A45U U60G", 0.643],
  ["G2A C36A", 0.228],
  ["C19G G74A", 0.161],
  ["C58A A83U", 0.554],
  ["C24U A77G", 0.53],
  ["U37G G54A", 0.0755],
  ["G52U U69A", 1.09],
  ["C21G C48U", 0.0707],
  ["G74A C75U", 0.141],
  ["C44U G81A", 0.224],
  ["U12G U37G", 0.277],
  ["U20G C63G", 0.104],
  ["G34A G38A", 0.0583],
  ["C30A U37C", 0.199],
  ["G11C C18G", 0],
  ["A45G C66A", 0.812],
  ["C62U C66U", 0.953],
  ["G25C G80A", 0.0744],
  ["C13G A42U", 0.0811],
  ["G40U C41A", 0.843],
  ["U20C C22G", 0.0554],
  ["C26U C30U", 0.967],
  ["G11C A78U", 0.0437],
  ["A77G C85G", 0.655],
  ["U46A G59A", 0.78],
  ["U12G U72C", 0],
  ["A56C G80U", 0.253],
  ["C18A C48U", 0.0627],
  ["U20A U37C", 0],
  ["G34C U37C", 0.156],
  ["G31U A56G", 0.386],
  ["C62U U69C", 1.07],
  ["G1A C49A", 0.0923],
  ["C48U G80C", 0.243],
  ["C32A C64G", 0.131],
  ["C57G G81U", 0.388],
  ["G10A C58A", 0.816],
  ["G11U C66U", 0.249],
  ["U72C C75G", 0.166],
  ["C14G G73C", 0.0504],
  ["G55A G82U", 0.241],
  ["G73U U79G", 0.374],
  ["A56G A87U", 0.897],
  ["G6U G25U", 0.117],
  ["U20A A71G", 0.0665],
  ["G67A G74A", 0.403],
  ["G11U C14U", 0.406],
  ["G25A U69A", 0.222],
  ["C15U C18A", 0.0639],
  ["G52C A56U", 1.12],
  ["A43G G52A", 0.577],
  ["U37G U72A", 0],
  ["G11A C86G", 0.306],
  ["C64G G74A", 0.17],
  ["C61G G73A", 0.475],
  ["G74A A87C", 0.583],
  ["U27G A77G", 0.723],
  ["U79C G82C", 0.222],
  ["G1A C41G", 0],
  ["G2A C7U", 0.0852],
  ["C21U C26G", 0.406],
  ["G68U U72C", 0.237],
  ["C18A G73C", 0.0396],
  ["C3G G38A", 0.0386],
  ["G29C G80U", 0.0953],
  ["C30G C66G", 0.0326],
  ["C44U C58U", 0.755],
  ["G6U A77C", 0.332],
  ["U23G C84A", 0.712],
  ["C15A U37G", 0.0755],
  ["U9C G31A", 0.269],
  ["C19A U37C", 0.0845],
  ["C13U U65A", 0.508],
  ["U23A U37A", 0.0997],
  ["G6A C63U", 0.743],
  ["C3U G29A", 0.0154],
  ["U9G G40A", 1.29],
  ["C41G A42C", 0.353],
  ["G34A U60C", 0.258],
  ["G6C A78U", 0],
  ["A45C U47C", 0.598],
  ["U23C", 0.987],
  ["G35C C61G", 0.217],
  ["G17A C49U", 0.853],
  ["A45C G68U", 0.604],
  ["U9C C36A", 0.178],
  ["A56U G76C", 1.14]
]}
